Where do the numbers come from? From patent US8729109B2.

TESTED SYSTEM: human S1P1 receptor (Homo sapiens, UniProt P21453)
Construct: membranes used
Sequence (P21453 whole entry): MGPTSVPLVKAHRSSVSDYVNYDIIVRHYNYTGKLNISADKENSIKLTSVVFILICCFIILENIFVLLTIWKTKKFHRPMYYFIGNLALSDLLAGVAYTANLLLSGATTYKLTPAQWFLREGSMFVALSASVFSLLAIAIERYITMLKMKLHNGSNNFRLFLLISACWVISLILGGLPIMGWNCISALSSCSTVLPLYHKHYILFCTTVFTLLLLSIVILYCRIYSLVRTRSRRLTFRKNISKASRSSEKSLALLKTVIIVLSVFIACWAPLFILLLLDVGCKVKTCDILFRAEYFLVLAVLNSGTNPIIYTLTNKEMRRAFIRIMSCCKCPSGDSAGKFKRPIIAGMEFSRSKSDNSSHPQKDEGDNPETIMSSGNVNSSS
TEST SUMMARY: GTP γ35S binding assay, S1P1 activity
CONDITION CONTEXT: membranes of cells stably expressing S1P1 receptor, agonist potency
MEASUREMENT NAME: pEC50
The meaning of pEC50 here: minus log10 of the concentration in molar units.

The reported pEC50 of the molecule COP(=O)(OC)OCC(O)COc1ccc(-c2noc(-c3ccc(OC(C)C)c(C#N)c3)n2)cc1Cl (stereo not shown) was 8.54

The reported pEC50 of the molecule COP(=O)(O)OCC(O)COc1ccc(-c2noc(-c3ccc(OC(C)C)c(C#N)c3)n2)cc1Cl (stereo not shown) was 7.69

The reported pEC50 of the molecule CC(C)Oc1ccc(-c2nc(-c3ccc(OCC(O)CO)c(Cl)c3)no2)cc1C#N (stereo not shown) was 7.99

The reported pEC50 of the molecule CC(C)Oc1ccc(-c2nc(-c3ccc(OCC(O)COP(=O)(O)O)c(Cl)c3)no2)cc1C#N (stereo not shown) was 5.34
